target: LFA-1 receptor on human Molt-3 T-cells (human, UniProt P20701 26-1170; P05107 23-769); assay: cell-based or functional assay
Sequence (P20701 26-1170, chain 1 of 2): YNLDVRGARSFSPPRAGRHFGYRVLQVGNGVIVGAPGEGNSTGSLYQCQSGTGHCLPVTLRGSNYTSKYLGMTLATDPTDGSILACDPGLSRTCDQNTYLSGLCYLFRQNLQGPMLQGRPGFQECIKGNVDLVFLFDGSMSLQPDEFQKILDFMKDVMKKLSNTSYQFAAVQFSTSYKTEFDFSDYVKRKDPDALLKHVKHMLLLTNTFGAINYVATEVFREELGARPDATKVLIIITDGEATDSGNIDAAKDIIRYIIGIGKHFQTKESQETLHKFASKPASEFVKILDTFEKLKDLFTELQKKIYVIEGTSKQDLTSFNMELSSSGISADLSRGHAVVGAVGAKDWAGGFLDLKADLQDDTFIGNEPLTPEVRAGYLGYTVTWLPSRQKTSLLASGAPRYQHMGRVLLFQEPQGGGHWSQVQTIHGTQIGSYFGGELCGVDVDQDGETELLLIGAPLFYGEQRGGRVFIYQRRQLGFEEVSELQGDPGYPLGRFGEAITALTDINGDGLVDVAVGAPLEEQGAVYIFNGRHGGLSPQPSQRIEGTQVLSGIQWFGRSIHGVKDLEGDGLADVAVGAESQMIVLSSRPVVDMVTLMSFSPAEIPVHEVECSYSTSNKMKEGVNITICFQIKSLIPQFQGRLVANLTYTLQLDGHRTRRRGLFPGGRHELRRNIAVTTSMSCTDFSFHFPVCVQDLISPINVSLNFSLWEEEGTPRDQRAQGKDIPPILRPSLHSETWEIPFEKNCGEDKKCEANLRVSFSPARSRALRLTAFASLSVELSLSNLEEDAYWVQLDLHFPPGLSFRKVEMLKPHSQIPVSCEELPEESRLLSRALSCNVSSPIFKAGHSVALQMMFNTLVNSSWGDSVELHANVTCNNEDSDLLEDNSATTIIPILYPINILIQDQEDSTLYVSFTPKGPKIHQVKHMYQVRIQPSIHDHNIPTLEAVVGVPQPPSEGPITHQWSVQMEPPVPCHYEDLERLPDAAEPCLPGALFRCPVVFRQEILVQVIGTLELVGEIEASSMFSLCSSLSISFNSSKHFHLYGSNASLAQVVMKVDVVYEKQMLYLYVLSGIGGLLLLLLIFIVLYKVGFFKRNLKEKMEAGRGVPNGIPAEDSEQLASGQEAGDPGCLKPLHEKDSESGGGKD
Sequence (P05107 23-769, chain 2 of 2): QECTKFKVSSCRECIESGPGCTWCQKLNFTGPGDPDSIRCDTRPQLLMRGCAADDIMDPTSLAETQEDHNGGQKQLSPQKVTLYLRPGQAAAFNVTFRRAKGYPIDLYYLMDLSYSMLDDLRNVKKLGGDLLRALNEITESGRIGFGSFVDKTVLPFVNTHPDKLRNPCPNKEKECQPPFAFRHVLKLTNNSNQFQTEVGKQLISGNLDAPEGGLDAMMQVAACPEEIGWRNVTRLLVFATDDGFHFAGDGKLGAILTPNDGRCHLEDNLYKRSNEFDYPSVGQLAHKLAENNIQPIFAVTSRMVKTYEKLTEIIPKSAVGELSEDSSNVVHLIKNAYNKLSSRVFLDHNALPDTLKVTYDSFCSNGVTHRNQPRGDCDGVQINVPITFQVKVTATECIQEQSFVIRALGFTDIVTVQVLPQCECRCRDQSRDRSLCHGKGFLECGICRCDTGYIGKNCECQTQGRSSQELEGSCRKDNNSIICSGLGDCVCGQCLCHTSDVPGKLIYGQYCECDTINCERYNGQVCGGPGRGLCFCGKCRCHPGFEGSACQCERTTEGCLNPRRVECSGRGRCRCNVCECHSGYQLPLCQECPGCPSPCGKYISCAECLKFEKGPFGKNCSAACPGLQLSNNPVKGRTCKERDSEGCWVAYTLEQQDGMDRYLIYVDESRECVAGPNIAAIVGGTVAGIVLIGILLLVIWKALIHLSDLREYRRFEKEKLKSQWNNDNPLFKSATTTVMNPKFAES
No end group written: not given here. *: point of attachment. MTX = methotrexate, its gamma-carboxylic acid amide-linked to the peptide N-terminus, CN(Cc1cnc2nc(N)nc(N)c2n1)c1ccc(C(=O)N[C@@H](CCC(=O)*)C(=O)O)cc1
property-name: IC50 in micromolar, cytotoxicity, Molt-3 T-cells (µM)
Give bare numbers, in µM.

Recorded results for 3 binders are shown here.
binder	readout-number
{MTX}-PRGGSV-NH2 [MTX-PRGGSV]	5.13
{MTX}-QTSVSPSKVI (also: cyclic peptide, ring not given here) [MTX-cIBL conjugate]	2.68
{MTX}-LPRGGSVLVT (also: cyclic peptide, ring closure not given here) [MTX-cIBR conjugate (methotrexate-cyclo-Leu Pro Arg Gly Gly Ser Val Leu Val Thr)]	2.75

Next up:
Value of measured IC50 in micromolar, cytotoxicity, Molt-3 T-cells for the entry {MTX}-VILPRG-NH2 [MTX-VILPRG] : 9.12
